- Measurement description: protein stability index of a GFP-peptide fusion (GPS, HEK-293T) (PSI 1-6); higher = more stable;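 note: 24-mer peptide tiles fused after GFP, lentivirally expressed, FACS-sorted into six equal bins by GFP/DsRed ratio, decoded by Illumina sequencing, PSI is the read-weighted mean bin number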
- Applied conditions: treatment: DMSO; c terminus: a fixed tail appended
Could you please report measured protein stability index for the items listed next?

Prompt: In one line, give reported protein stability index of the entry SWGIAGETELALVKESGERKVTDS [DLC1] .
Completion: 5.14

Prompt: Write down protein stability index measured for item RDPPRPGPSRPAEKPPRPEAKSAQ [GCH1]
Completion: 5.33

Prompt: Supply measured protein stability index of QLQVPTLRQQCAQVLRNNPDALSD [ELOA2] in your reply.
Completion: 4.24

Prompt: Tell me measured protein stability index for LVVADDKMAAFHGAGLKRYLLTVM [ADAMTS4] please.
Completion: 2.72

Prompt: Give me measured protein stability index, please, for this sequence: AQSAGTQQVAAVSSVSPATPFQSV [BRD3]
Completion: 4.42

Prompt: Respond only with protein stability index recorded for AIGRVRVLEEQLVKAKEQIENYKK [FUT8]
Completion: 4.03

Prompt: Tell me its protein stability index given VHEVLQAVDAGDPAVEACENRRKV [TCF25] as the entry.
Completion: 5.3

Prompt: Write down protein stability index measured for item SDLLDEKEIAKNLIQPINHTTLQC [FEM1C]
Completion: 3.83

Prompt: Look up and report measured protein stability index for this entry: AILMKAYQRFRQKSKASFLLLASG [PTGFR]
Completion: 3.41

Prompt: Report measured protein stability index; entry is PPWGLGPGAGDPAPGIGPPEPWPG [MYCL]
Completion: 3.63

Prompt: Write down protein stability index measured for item MNIIELEIPDQNIDVEALQVAFGS [GMCL1]
Completion: 2.86

Prompt: Fill in reported protein stability index for this entry: QLAEENERLKQEIERLTREVEATR [DDIT3]
Completion: 5.4

Prompt: Dear colleague, please send me the reported protein stability index for GCSSSGSCSQGSGILHYAHGDSQQ [CRY1] when you can.
Completion: 3.75

Prompt: Give the value of protein stability index reported for the following: AHSNEILIFSVQPKSLVRLSLEAV [KLHDC2]
Completion: 3.01

Prompt: Return reported protein stability index. Input sequence: LAEAKYYLVQGLVEECQAALQNKD [KCTD10]
Completion: 3.24

Prompt: State its protein stability index: RRLLVKDPKRRMTIAQSLEHSWIK [DAPK3]
Completion: 2.67

Prompt: Entry LEIVGREGVSLTAVLTTHHHWDHA [HAGHL] needs its protein stability index filled in; supply it.
Completion: 2.59

Prompt: Answer with the recorded protein stability index of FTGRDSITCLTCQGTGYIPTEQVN [TMEM106C] only.
Completion: 2.66

Prompt: Tell me its protein stability index given ANNRILAERIAKEIQVIPLQRDDE [IMPA1] as the entry.
Completion: 4.17

Prompt: Quote protein stability index reported for LATLDPLALDREPPPHLLPEKHQV [WDR88] please.
Completion: 4.06

Prompt: Kindly indicate its recorded protein stability index. Item: ASLLPSARLASPLPREEEIVFPEK [ADAMTS4]
Completion: 4.7

Prompt: Give the reported value of protein stability index for this record: FLVGLLFVQRSGNYFVTMFDDYSA [SLC6A17]
Completion: 3.05

Prompt: Quickly give me recorded protein stability index for PPLRLWRSVIEVPAVPEEILKRLL [DLC1]
Completion: 2.26

Prompt: Consider the sequence LKDNPLDPVLAKVAGDCLDEKQCK [LRRC59] . State its measured protein stability index.
Completion: 5.13

Prompt: Provide one value: measured protein stability index of KISKQFVAPADVRRLLSYCKGRDH [ZSWIM9]
Completion: 2.49

Prompt: Complete the entry with protein stability index for ECHIVVLTDDDVVDWDEEYPPQMG [BTBD10]
Completion: 3.34

Prompt: In one line, give reported protein stability index of the entry FIVIDAMLERIKHEKTVDIYGHVT [PTPRD] .
Completion: 3.04

Prompt: // fetch protein stability index given entry TASTAPPVPATAPSPAPAVAAAAA [SNAP91]
Completion: 5.09

Prompt: Dear colleague, please send me the reported protein stability index for RWFRSVDWEAVPQRKLKPPIVPKI [PRKX] when you can.
Completion: 2.33

Prompt: Retrieve protein stability index measured for EKAVANFDRTEWVQIRRLEAAGES [ZC2HC1C] and print it.
Completion: 4.49

Prompt: Specify reported protein stability index for the sequence shown: TFLSRILTGLNYEAPKYHIPYWVA [NSDHL]
Completion: 2.77

Prompt: Fill in protein stability index for record SGRHILEDSCAELGESKEHMESRM [SDE2]
Completion: 4.64

Prompt: Indicate its recorded protein stability index; the sequence in question is ADTGRIHRFVEKPQVFVSNKINAG [GMPPB]
Completion: 3.46

Prompt: Supply recorded protein stability index for VRNLQSEVEGVKNIMTQNVERILA [VAMP8] here.
Completion: 3.01

Prompt: Supply reported protein stability index belonging to this sequence: PSALFSKIRRGQFCIPEHISPKAR [TRIB1]
Completion: 2.81

Prompt: Supply recorded protein stability index for KRGPSSRSGGPPPKKSAPSAVARS [RBMY1A1] here.
Completion: 4.47

Prompt: Output measured protein stability index for this item: SNHSAQDSAVENLLLLSKAKLVPS [IKZF1]
Completion: 3.81

Prompt: Note protein stability index for the sequence shown: VSVIQSIPIFNETGRFSFTLPYPV [HACD3]
Completion: 2.91

Prompt: State its protein stability index: ALEQREQDAVDQVKVIMDALDERA [TRIM29]
Completion: 5.33

Prompt: For the sequence TTIKRKREDDKLVVECVMKGVTST [FABP4] , give its reported protein stability index.
Completion: 3.9

Prompt: Given WKSHLRNVQRPLLQAPFLPPKPPP [RHOBTB2] , respond with its protein stability index.
Completion: 3.03

Prompt: Using known records, supply protein stability index for DCLQLIADSETPTIQKGSYTFVPW [TNFSF13B]
Completion: 2.19

Prompt: Report protein stability index for SALERLETKLHLLRQEMVNLRATD [LURAP1L]
Completion: 2.73

Prompt: Please report protein stability index for the following sequence: LQSCQAEIIELRRTVNALEIELQA [KRT34]
Completion: 2.15

Prompt: Find the measured protein stability index of SGVGIDGEVLSYLELAQFHNAHQL [RHOBTB1] and report it.
Completion: 2.56

Prompt: Give reported protein stability index value for MAQQQMTSSQKALMLELKSLQEEP [UBE2R2]
Completion: 4.33

Prompt: Give protein stability index for YSAEQFCVSRNSHLTSVTSESEQE [CD207]
Completion: 5.23

Prompt: Answer with the recorded protein stability index for the sequence listed here: YQLGEEAMEKFREDEGFLREEERP [KCNA3]
Completion: 5.13

Prompt: Return reported protein stability index. Input sequence: CSSPSVVASLPLDQSDEGSSSQKE [MAGEA10]
Completion: 5.36

Prompt: Give the value of protein stability index reported for the following: QDLCCRAIVSCTPVHLIDKLPLPV [RAB40C]
Completion: 2.4

Prompt: Give the measured protein stability index for KVMIFKSSYSLSDMVSNIELPTRI [MIA2]
Completion: 1.88

Prompt: Give the measured protein stability index for TRNSPRGCRLPSISSTTCGRQLEK [SPATS1]
Completion: 3.81

Prompt: Quick one: give measured protein stability index for IVSTQITRPSGNNGNRRRRKLRKT [PHTF1]
Completion: 4.35

---

- Measurement description: protein stability index of a GFP-peptide fusion (GPS, HEK-293T) (PSI 1-6); higher = more stable
- Applied conditions: treatment: DMSO; c terminus: a fixed tail appended
Experimental readout: protein stability index

Prompt: Supply protein stability index value. Item: MAPPAAPGRDRVGREDEDGWETRG [HES6]
Completion: 5.2

Prompt: Given SLIILHLSGATKKGTEKQTTSETQ [NETO1] , respond with its protein stability index.
Completion: 2.35

Prompt: Tell me measured protein stability index for LKGGLQEVAEQLELERIGPQHQAG [CNOT7] please.
Completion: 4.67

Prompt: # return recorded protein stability index for entry MYFSQEEWELLDPTQKALYNDVMQ [ZNF75A]
Completion: 3.67

Prompt: Item IAVRKSRDKAKMRNLETQHKVLEL [CEBPB] : provide protein stability index
Completion: 3.14

Prompt: Annotate the sequence QLLCPWAPLSGPQALMLPPGSFWG [VENTX] with its measured protein stability index.
Completion: 2.41

Prompt: Look up and state reported protein stability index for SASSDEPYARIQQSRRQCHAEEDQ [SMIM2]
Completion: 5.49

Prompt: Note protein stability index for the sequence shown: ACTMDQARGLDDAAARGGQCPGLG [ZBED3]
Completion: 4.54

Prompt: Quickly give me recorded protein stability index for GASSREEPPEEPEQCPVIDSQAPA [SPDEF]
Completion: 5.69

Prompt: Annotate the sequence LDNSRSILKRRYYRQHCTLELGSY [CTDNEP1] with its measured protein stability index.
Completion: 2.34

Prompt: Please supply the value of reported protein stability index for the item RGDRGPGPALAGEPAGSLRELGVW [C2CD2L]
Completion: 3.25

Prompt: Answer with the recorded protein stability index for the sequence listed here: GGTSWTAYSLNKIHAYNLGTNAWE [KLHDC10]
Completion: 2.12

Prompt: Indicate the recorded protein stability index value for this sequence: RKKTLVPGPPGSSRPVKGQVVTVH [FKBP8]
Completion: 3.53

Source listed as the supplement of paper PMC10567573.
